- assay.system: LRH-1 (Homo sapiens)
- Construct: The transfected plasmids included full-length LRH-1 in a pCI vector; expressed in transfected cells; host or cells: HeLa
- Sequence (O00482 whole entry): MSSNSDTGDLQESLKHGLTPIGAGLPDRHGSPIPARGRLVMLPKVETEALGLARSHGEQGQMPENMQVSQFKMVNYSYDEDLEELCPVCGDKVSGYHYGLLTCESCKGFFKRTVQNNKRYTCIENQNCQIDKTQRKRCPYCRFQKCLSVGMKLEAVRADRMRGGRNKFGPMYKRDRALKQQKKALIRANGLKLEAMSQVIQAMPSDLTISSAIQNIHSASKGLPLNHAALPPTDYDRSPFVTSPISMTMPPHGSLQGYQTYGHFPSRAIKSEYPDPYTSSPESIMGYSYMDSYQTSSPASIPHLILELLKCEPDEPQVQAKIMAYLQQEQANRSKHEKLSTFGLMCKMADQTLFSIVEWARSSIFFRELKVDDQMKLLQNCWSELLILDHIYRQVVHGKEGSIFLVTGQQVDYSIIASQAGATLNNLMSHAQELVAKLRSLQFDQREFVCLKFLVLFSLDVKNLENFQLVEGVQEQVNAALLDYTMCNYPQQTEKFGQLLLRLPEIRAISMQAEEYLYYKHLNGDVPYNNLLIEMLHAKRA
- test.description: Luciferase reporter assay (SHP-luc) in HeLa cells transfected with full-length LRH-1
- Type: cell-based
- setup.conditions: fold increase over baseline (DMSO-treated cells) relative to the fold increase induced by RJW100
Measured Relative Efficacy, listed per entry.
reported.property: Relative Efficacy

{"molecule": "C=C(c1ccccc1)[C@@]12CC[C@@H](O)[C@@H]1CC(CCCCCCCCCCOP(=O)([O-])OCC[N+](C)(C)C)=C2c1ccccc1 (relative stereo) [Compound 11g]", "reported.property": "Relative Efficacy", "measured.value": 2.48}
{"molecule": "C=C(c1ccccc1)[C@@]12CC[C@H](OC(N)=O)C1CC(CCCCCC)=C2c1ccccc1 (stereo partly drawn) [Compound 29-endo]", "reported.property": "Relative Efficacy", "measured.value": 0}
{"molecule": "C=C(c1ccccc1)[C@@]12CCC(=O)C1CC(CCCCCC)=C2c1ccccc1 (stereo in doubt)", "reported.property": "Relative Efficacy", "measured.value": "−0.42"}
